Just for reference, PubChem BioAssay is where these values come from.

experimental-protocol: small-molecule binders of probe aNOTCH3, primary screen, biochemical, small-molecule microarray, 635/667 nm fluorescence (AID 1120);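 further: probe is a biotin-tagged antibody raised against NOTCH3 rather than NOTCH3 protein; score merges spot fluorescence near 667 nm with spot signal to noise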
test-parameters: higher = more signal
Provide the recorded composite z-score for the entries that follow.

Illustrative cases are given below, each with its answer.
NC(=O)NCC#Cc1ccc2c(c1)[C@]1(C(=O)N2)[C@H](c2ccc(O)cc2)N2[C@H](c3ccccc3)[C@H](c3ccccc3)OC(=O)[C@H]2[C@@H]1C(=O)N1CCCCCCC1 : 0.976
CC(C)(C)OC(=O)CC[C@]1(C(=O)NCc2ccccc2)N=C(c2ccc(OCCCO)cc2)O[C@H]1c1ccccc1 : 0.61
CCc1cc2c(nc1CC)CCN(CCC(C)=NOC[C@@H](O)[C@H]1O[C@@H]3OC(C)(C)O[C@@H]3[C@H]1O)C2 : -0.0111

Consider now this further compound.
Task: Data request, read-out composite z-score, for "CO[C@H]1O[C@H](CO)[C@@H](OC(=O)Nc2ccc3c(c2)OCO3)[C@H](OC(=O)Nc2ccccc2-c2ccccc2)[C@@H]1OC(=O)Nc1ccccc1-c1ccccc1"
Result: 0.276
